tested on: MCF7; test: Antiproliferative activity against human MCF7 cells after 3 days by MTT assay; format: functional, cell-based; details: MCF7, 72 h
IC50 values by entry

# COMPOUND, MEASUREMENT_QUALIFIER, IC50 / µM
measured = [
    ("O=C(N[C@H](COC(=O)[C@H](Cc1ccccc1)NC(=O)c1ccccc1O)Cc1ccccc1)c1ccccc1", "=", 49),
    ("O=C(N[C@@H](COC(=O)[C@@H](Cc1ccccc1)NC(=O)c1ccccc1O)Cc1ccccc1)c1ccccc1", "=", 36.3),
    ("O=C(Cc1ccccc1OCc1ccccc1)N[C@@H](Cc1ccccc1)C(=O)OC[C@@H](Cc1ccccc1)NC(=O)c1ccccc1", "=", 28.2),
    ("C[C@@H](NC(=O)c1ccccc1)C(=O)OC[C@@H](Cc1ccccc1)NC(=O)c1ccccc1", ">", 100),
    ("O=C(Cc1ccccc1O)N[C@@H](Cc1ccccc1)C(=O)OC[C@H](Cc1ccccc1)NC(=O)c1ccccc1", ">", 100),
]
